These records show pKi for UniProt P22748.
Sequence (P22748 whole entry): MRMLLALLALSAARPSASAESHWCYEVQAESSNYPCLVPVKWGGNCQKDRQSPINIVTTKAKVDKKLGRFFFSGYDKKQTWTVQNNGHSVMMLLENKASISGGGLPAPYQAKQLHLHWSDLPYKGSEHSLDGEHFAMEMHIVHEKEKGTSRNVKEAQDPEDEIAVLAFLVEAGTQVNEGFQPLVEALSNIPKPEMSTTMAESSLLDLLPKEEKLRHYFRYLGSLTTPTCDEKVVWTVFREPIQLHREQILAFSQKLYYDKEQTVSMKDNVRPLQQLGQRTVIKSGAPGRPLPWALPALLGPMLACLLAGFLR
For clarity, pKi is expressed as the negative log10 of concentration in mol/L.

Please review the entries below; each comes with its answer.
Compound: O=S(=O)(O)O[C@@H]1CC=CC[C@H]1O
Assay Endpoint: pKi
Meas Value: 4.86

Compound: O=S(=O)(O)O[C@H]1CC2c3ccccc3C1[C@@H]2O (some centres undefined)
Assay Endpoint: pKi
Meas Value: 3.70

Compound: O[C@@H]1C2C[C@H](O)C1c1ccccc12 (some centres undefined)
Assay Endpoint: pKi
Meas Value: 3.63

Here is the next item to consider.
Write down measured pKi (UniProt P22748) for this compound. O[C@@H]1CCCC[C@H]1O [(1R,2R)-trans-1,2-cyclohexanediol]
4.73

----------
These records show Ki for Carbonic anhydrase 6 (Homo sapiens, UniProt P23280).
Only the number, expressed in µM, is required.

Please review the entries below; each comes with its answer.
Compound: O=S(=O)(O)O[C@@H]1CC=CC[C@H]1O
System Name: Carbonic anhydrase 6 (Homo sapiens, UniProt P23280)
Sequence (P23280 whole entry): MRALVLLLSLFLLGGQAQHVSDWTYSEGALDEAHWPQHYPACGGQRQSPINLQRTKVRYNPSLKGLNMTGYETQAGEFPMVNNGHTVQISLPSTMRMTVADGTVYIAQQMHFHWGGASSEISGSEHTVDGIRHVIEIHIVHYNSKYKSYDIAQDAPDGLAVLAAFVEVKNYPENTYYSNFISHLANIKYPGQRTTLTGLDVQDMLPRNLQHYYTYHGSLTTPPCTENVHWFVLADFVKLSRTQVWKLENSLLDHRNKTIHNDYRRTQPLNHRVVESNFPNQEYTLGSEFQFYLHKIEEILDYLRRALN
U: µM
Meas Value: 93.1
--
Compound: O[C@@H]1C2C[C@H](O)C1c1ccccc12 (stereo partly specified)
System Name: Carbonic anhydrase 6 (Homo sapiens, UniProt P23280)
U: µM
Meas Value: 278

Tell me Ki reported for O[C@@H]1Cc2ccccc2C[C@H]1O
127

Tell me Ki reported for O=S(=O)(O)O[C@H]1CC2c3ccccc3C1[C@@H]2O (stereo partly specified)
221

Tell me Ki reported for O[C@@H]1CCCC[C@H]1O [(1R,2R)-trans-1,2-cyclohexanediol]
76.2

Tell me Ki reported for O=S(=O)(O)O[C@@H]1CC/C=C\CC[C@H]1O
123
